target: Cytochrome P450 3A4 (Homo sapiens); experiment: qHTS Assay for Activators of Cytochrome P450 3A4 (AID 885); conditions: recombinant CYP3A4, Luciferin-PPXE luminescence, 60 min; series mostly up to 57.1 µM; further: nearly all actives have a fitted effect of over 65% in size
Calls of active or inactive are those of the source. The call rests on the fitted dose curve; in most records, active means well fitted activation curve with a large enough effect; inconclusive means small, poorly fitted or top-dose-only effect; inactive means no such curve, though single readings can be large or run the other way.
readout_name: activity change, positive = activation

>>> df
                                   molecule                            readout_name                          result
0                 Cc1cc(=O)oc2cc(O)c(O)cc12  activity change, positive = activation                        inactive
1  CCC[C@@H]1C[C@@]1(CCC)[C@@H](NC(=O)Oc1ccccc1)c1ccc(C(=O)OC)cc1  activity change, positive = activation                        inactive
2  CC(C)=CCC/C(C)=C/CO/N=C1/C[C@@H](O)[C@@H](O)[C@@H]2[C@@H]3C(=O)N(Cc4ccc5c(c4)OCO5)C(=O)[C@H]3CC[C@H]12  activity change, positive = activation   -115% [at 11.4 µM] (inactive)
3  CC(=O)OC[C@H]1O[C@@H](O/N=C(\C)CCN2CCc3nc(-c4ccccc4)c(-c4ccccc4)cc3C2)[C@H](OC(C)=O)[C@@H](OC(C)=O)[C@H]1OC(C)=O  activity change, positive = activation  -41.6% [at 11.4 µM] (inactive)
4  COc1ccc(-c2coc3ccc(OC4OC(COC(C)=O)C(OC(C)=O)C(OC(C)=O)C4OC(C)=O)cc3c2=O)cc1 (configuration not stated)  activity change, positive = activation                        inactive
5  Clc1ccc(C2[C@H]3CN(Cc4ccc(-c5ccccc5)cc4)[C@H](c4ccccc4)C34CC2(c2cccnc2)C4)cn1 (some centres not stated)  activity change, positive = activation                        inactive
6  C/C(CCN1CCc2nc(-c3ccccc3)c(-c3ccccc3)cc2C1)=N\O[C@@H](C)CN1CCCc2nc(C)c(C)cc21  activity change, positive = activation  -58.8% [at 11.4 µM] (inactive)
7  CC(=O)N1C2(C=CC1(C)C(=O)NCc1ccccn1)CCCCC2 (configuration not stated)  activity change, positive = activation                        inactive

-- ask State the recorded activity change, positive = activation for this entry: FC(F)(F)c1ccc(CN2C[C@@H]3C(c4ccc(C(F)(F)F)cc4)C4(c5ccccc5)CC3(C4)[C@H]2c2ccccc2)cc1 (some centres not stated)
-- reply inactive

-- ask Lookup `CC1(C)CC(=O)c2c(oc3cc4c(cc23)OCO4)C1`
-- reply inactive

-- ask Lookup `COC(=O)[C@@H]1C[C@@]2(O)[C@H](O)[C@H](O)[C@H](O)C[C@H]2N1Cc1c(F)cccc1Cl`
-- reply inactive

-- ask Lookup `CCCNC(=O)OC[C@@H]1O[C@H](CCO/N=C2\c3cc(OC)ccc3O[C@H](c3cccc(OC)c3)[C@H]2O)C=C[C@@H]1Oc1ccc(OC)cc1`
-- reply -120% [at 11.4 µM] (inactive)

-- ask Lookup `CC(C)=NO[C@@H](C)c1cc(-c2c(C)cc(C)cc2C)no1`
-- reply -45% [at 11.4 µM] (inactive)

-- ask Lookup `O=C1C=C(NCCO)C(=O)c2cnccc21`
-- reply inactive

-- ask Lookup COC(=O)c1ccc(C(NC(=O)OCc2ccccc2)/C(=C/[C@@H](C)C(=O)NCCc2c[nH]c3ccccc23)c2cccnc2)cc1 (some centres not stated)
-- reply inactive

-- ask Lookup COc1ccc(OC2C=CC(C#Cc3ccc(Br)cc3)OC2CO)c(C(C)(C)C)c1 (configuration not stated)
-- reply -84.8% [at 11.4 µM] (inactive)

-- ask Lookup `C[C@@H]1/C=C\CC(=O)OC[C@H](C)C(=O)N[C@@H](Cc2ccccc2)C(=O)OC1`
-- reply -37.2% [at 11.4 µM] (inactive)
